System: M14
ASSAY NOTES: NCI tumour cell line growth inhibition, 48 h
Calls of active or inactive are those of the source. Rule as the data show it: active = GI50 up to about 1.1 µM and inactive = higher.
Just give me one of these, please: active, inactive

{"COMPOUND": "Cc1sc2nc3n(c(=O)c2c1C)N=CN(c1ccccc1)C3", "QUALITATIVE LABEL": "inactive"}
{"COMPOUND": "Cn1c(=O)ccc2cc(C(=O)c3ccccc3)ccc21", "QUALITATIVE LABEL": "inactive"}
{"COMPOUND": "O=C(NNc1cn[nH]c(=O)c1Cl)/C(=C/c1ccc2c(c1)OCO2)NC(=O)c1ccccc1", "QUALITATIVE LABEL": "inactive"}
{"COMPOUND": "Nc1nc2[nH]cc(CCc3ccc(C(=O)N[C@@H](CCC(=O)O)C(=O)O)cc3)c2c(=O)[nH]1", "QUALITATIVE LABEL": "inactive"}
{"COMPOUND": "Cn1c(=O)c2c3ccccc3c(C(=O)c3ccccc3)n2c2ccccc21", "QUALITATIVE LABEL": "inactive"}
{"COMPOUND": "CC(NCc1c(O)ccc2ccc(=O)oc12)C(=O)O (stereo unspecified)", "QUALITATIVE LABEL": "inactive"}
{"COMPOUND": "CCCCCCCCCC(=O)N[C@H]1CCc2cc(OC)c(OC)c(OC)c2-c2ccc(SC)c(=O)cc21", "QUALITATIVE LABEL": "active"}
{"COMPOUND": "Cc1cc2cc3ccccc3cc2c(=O)[nH]1", "QUALITATIVE LABEL": "inactive"}

Q: Please state the recorded outcome for this compound: COc1ccc2[nH]c(Cl)c(/C=C3/C(=O)N(c4ccccc4)c4ccccc43)c2c1
A: inactive

Q: Please give the result for CCSc1nnc(Sc2c3ccccc3nc3ccccc23)s1 too.
A: inactive

Q: Please give the result for O=[N+]([O-])c1ccc2c(c1)Nc1c3ccccc3nc3cccc-2c13 too.
A: inactive

Cited source for all entries: ChEMBL document CHEMBL1201862
